# Test system: E. coli BL21
# assay_explanation: MIC against Gram-negative bacteria: E. coli BL21
# Type: cell-based
# condition_context: E. coli BL21; 10 h cultivation at 37° C.
Some substances, each annotated with its measured MIC.
In your response, put the unit directly after the numeric value.

- PRT1031 (MCVTYHNGTGYCKCPEGFLGEYCQ; listed as Homo sapiens): 50 µg/mL

Query: For the record PRT969 (LLSPCTPNPCEHGGRCESAPGQLPVCSCPQGWQGPRCQ; listed as Homo sapiens) , what value of MIC is listed for E. coli BL21?
Result: 12.5 µg/mL

Query: Similarly, PRT954 (NIDDCPNHRCQNGGVCVDGVNTYNCRCPPQWTGQFCT; listed as Homo sapiens) ?
Result: 25 µg/mL

Query: Further, for PRT897 (DPNPCLSTPCKNAGTCHVVDRRGVADYACSCALGFSGPLCL; listed as Homo sapiens) ?
Result: 25 µg/mL
